Exercise: for every item that follows, state its recorded protein stability index.
B1: SPACA3 (parent)
chain: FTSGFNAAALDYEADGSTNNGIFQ

- Variants of: B1
- assay.comment: protein stability index of a GFP-peptide fusion (GPS, HEK-293T) (PSI 1-6); higher = more stable;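 also: lentivirally expressed fusions sorted by FACS into six bins by GFP to DsRed ratio, PSI derived from sequencing read proportions per bin multiplied by bin number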
- stated.conditions: c terminus: a fixed tail appended
I only need the number, thanks.

Recorded protein stability index (variant E13D ): 2.32

Recorded protein stability index (variant T2A ): 2.44

Recorded protein stability index (variant A7C ): 2.08

Recorded protein stability index (variant Q24R ): 2.2

Recorded protein stability index (variant I22W ): 2.15

Recorded protein stability index (variant A8C ): 1.77

Recorded protein stability index (variant F1A ): 4.21

Recorded protein stability index (variant A7W ): 2.39

Recorded protein stability index (variant G21N ): 1.84

Recorded protein stability index (variant G16V ): 1.78

Recorded protein stability index (variant D15I ): 2.12
